System: HepG2
Assay: cytotoxicity call (relative viability < 0.9)
Conditions: 10 µM
Hit rate of the full screen: of about 39,000 compounds, about 3,300 (8.5%) were called active. This is one part of a sample in which actives are shown more often than they occur.
Can you answer with just one of these options? 1 (yes) = active, 0 (no) = inactive

Exercise: Record request — test call for `Nc1ccn[nH]1`
Key: 0 (no)

Exercise: Please state the recorded outcome for this molecule: `NC[C@H](c1ccco1)N1CCCCCC1`
Key: 0 (no)

Exercise: Returns: the outcome recorded for `C[C@H]1CN([C@@H](C)CO)C(=O)Cc2cc(NC(=O)Cn3cnnn3)ccc2O[C@H]1CN(C)S(=O)(=O)c1cccs1` in this assay.
Key: 0 (no)

Exercise: Record request — test call for `COC(=O)[C@@H](O)c1ccccc1`
Key: 0 (no)

Exercise: Recorded test outcome, item `C/C(=N\N)c1c(C)cc(C)[nH]c1=O`
Key: 0 (no)

Exercise: // outcome(item) with item = C=CC(C1=CC(=O)C(OC)=CC1=O)c1ccc(OC)cc1 (stereo not drawn)
Key: 1 (yes)

Exercise: Status in this test for COC1C(O)CC(=O)OC(C)CC=CC=CC(OC2CCC(N(C)C)C(C)O2)C(C)CC(CC=O)C1OC1OC(C)C(OC2CC(C)(O)C(O)C(C)O2)C(N(C)C)C1O (stereo not drawn) ?
Key: 1 (yes)

Exercise: Write down the call the test reported for this molecule. Item: `O=C(CCn1ccc(=O)[nH]c1=O)Nc1ccc2c(c1)NC(=O)CO2`
Key: 0 (no)

Exercise: What outcome does the record of this test show for `COc1cc(N)ccn1` ?
Key: 1 (yes)

Exercise: Test call, this molecule: `S=C(Nc1ccccc1)Nc1ccc2c(c1)oc1ccccc12`
Key: 0 (no)

Exercise: Hi team, can someone confirm the assay call for `CNC(=O)C[C@H]1CC[C@H]2[C@@H](COC[C@@H](O)CN2C(=O)c2ccccn2)O1` ?
Key: 0 (no)

Exercise: Any idea what this test logged for `C[C@@H]1CN([C@@H](C)CO)C(=O)Cc2cc(NS(=O)(=O)c3ccc(F)cc3)ccc2O[C@@H]1CN(C)Cc1ccncc1` ?
Key: 0 (no)

Exercise: Record lookup: outcome of this test for `C[C@@H]1CN([C@@H](C)CO)S(=O)(=O)c2ccc(-c3cccc(F)c3)cc2O[C@@H]1CN(C)S(C)(=O)=O` ?
Key: 0 (no)

Exercise: // return assay outcome for `C[C@H]1CCCCO[C@@H](CN(C)Cc2ccc(C(F)(F)F)cc2)[C@@H](C)CN([C@@H](C)CO)C(=O)c2cc(NC(=O)Cc3ccccc3)ccc2O1`
Key: 0 (no)

Exercise: Dear colleague, could you share the recorded outcome for `CCN(CC)C(=O)C(C#N)=Cc1cc(O)c(O)c([N+](=O)[O-])c1` when you have a moment?
Key: 0 (no)

Exercise: GET /call?item= `C[C@H](CO)N1C[C@H](C)[C@@H](CN(C)C(=O)Nc2ccccc2)Oc2c(NS(=O)(=O)c3cn(C)cn3)cccc2C1=O` returns the recorded outcome of this test.
Key: 0 (no)

Exercise: I'd appreciate the recorded outcome for `CO[C@@H]1[C@@H](O[C@@H]2O[C@H](C)[C@@H](O[C@H]3C[C@@](C)(O)[C@@H](OC(=O)CC(C)C)[C@H](C)O3)[C@H](N(C)C)[C@H]2O)[C@@H](CC=O)C[C@@H](C)[C@@H](O)/C=C\C=C/C[C@@H](C)OC(=O)C[C@H]1OC(C)=O` from this test.
Key: 0 (no)

Exercise: State the result this test recorded for `Cc1ccc(S(=O)(=O)N2C[C@H](O)COC[C@H]3O[C@H](CC(=O)N4CCc5ccccc5C4)CC[C@@H]32)cc1` .
Key: 0 (no)

Exercise: I'd appreciate the recorded outcome for `C[C@@H]1CCCCO[C@@H](CN(C)Cc2ccc(C(F)(F)F)cc2)[C@@H](C)CN([C@H](C)CO)C(=O)c2cc(NC(=O)Cc3ccccc3)ccc2O1` from this test.
Key: 1 (yes)

Exercise: For `C[C@@H]1CCCCO[C@H](CN(C)Cc2ccc(C(F)(F)F)cc2)[C@@H](C)CN([C@@H](C)CO)C(=O)c2cc(NC(=O)Cc3ccccc3)ccc2O1` , what call appears in the results of this test?
Key: 0 (no)

Exercise: Dear colleague, could you share the recorded outcome for COC1C(O)CC(=O)OC(C)CC=CC=CC(O)C(C)CC(CC=O)C1OC1OC(C)C(OC2CC(C)(O)C(OC(=O)CC(C)C)C(C)O2)C(N(C)C)C1O (stereo not drawn) [KITASAMYCINS [A1 shown] ] when you have a moment?
Key: 0 (no)

Exercise: Please state the recorded outcome for this molecule: `C[C@H]1CCCCO[C@H](CN(C)Cc2ccc(C(F)(F)F)cc2)[C@@H](C)CN([C@@H](C)CO)C(=O)c2cc(NC(=O)Cc3ccccc3)ccc2O1`
Key: 1 (yes)

Exercise: Answer briefly: the call reported for `COc1cccc(CNC(=O)C[C@@H]2C=C[C@H](NC(=O)C3CCOCC3)[C@H](CO)O2)c1` in this assay.
Key: 0 (no)

Exercise: Assay result, entry C=CC(C1=CC(=O)C(OC)=CC1=O)c1ccc(O)cc1 (stereo not drawn) — outcome?
Key: 1 (yes)

Exercise: Assay result, entry `C[C@@H]1CCCCO[C@H](CN(C)S(=O)(=O)c2cn(C)cn2)[C@H](C)CN([C@@H](C)CO)C(=O)c2cc(NC(=O)CCCN(C)C)ccc2O1` — outcome?
Key: 0 (no)

Exercise: Hi team, can someone confirm the assay call for `C[C@@H]1CCCCO[C@@H](CN(C)C(=O)Nc2ccccc2)[C@@H](C)CN([C@@H](C)CO)C(=O)c2cc(NS(=O)(=O)c3ccccc3)ccc2O1` ?
Key: 0 (no)

Exercise: Test call for this molecule, please: `COc1ccnc(N)c1`
Key: 0 (no)

Exercise: Would you mind telling me which call this test gave `CN(C)CCCCNC(=O)[C@@H]1C[C@@H]2C(=O)N[C@@H](CCCC[N+](C)(C)C)C(=O)N2[C@@H]1c1ccc(O)cc1` ?
Key: 0 (no)
